From: patent US5250542A

# assayed target: peripheral opioid receptors (Mus musculus, UniProt P42866)
# Construct: Mice maintained (6 mice/cage) on 0.01M saccharin water with 1 g/1 morphine sulfate; from tissue; host or cells: living morphine-maintained mice (in vivo test; endogenous receptor)
# Sequence (P42866 whole entry): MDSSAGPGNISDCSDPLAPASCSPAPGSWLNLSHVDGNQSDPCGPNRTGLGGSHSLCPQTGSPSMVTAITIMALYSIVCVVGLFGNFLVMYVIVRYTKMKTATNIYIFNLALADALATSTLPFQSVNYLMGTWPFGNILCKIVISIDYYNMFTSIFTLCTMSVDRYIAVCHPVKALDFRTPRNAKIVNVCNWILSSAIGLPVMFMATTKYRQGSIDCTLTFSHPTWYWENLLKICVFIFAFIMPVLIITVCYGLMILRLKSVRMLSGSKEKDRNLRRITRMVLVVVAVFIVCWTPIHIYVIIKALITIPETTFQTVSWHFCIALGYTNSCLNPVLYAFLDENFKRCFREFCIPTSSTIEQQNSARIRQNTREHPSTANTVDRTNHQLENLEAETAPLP
# assay comment: precipitated diarrhea in morphine-maintained mice (peripheral opioid activity) and comparison with the writhing test
# Type: in vivo
# condition label: higher ratio = greater relative antagonism of peripheral opioid receptors
Where a name gives a salt, the structure may show the parent alone.
measured parameter: Ratio (AD50 mouse writhing test / ED50 mouse diarrhea test)

{"molecule": "CNC(=O)CCCNC(=O)C(CCN1CC[C@@](C)(c2cccc(O)c2)[C@@H](C)C1)C1CCCCC1 (relative stereo) [Example 24, monohydrochloride monohydrate]", "relation qualifier": ">", "reported result": 400}
{"molecule": "CCCNC(=O)CNC(=O)C(Cc1ccccc1)CN1CC[C@@](C)(c2cccc(O)c2)[C@@H](C)C1 (stereo partly drawn) [Example 49, monohydrate hydrochloride]", "relation qualifier": "=", "reported result": 61}
{"molecule": "CCNC(=O)CNC(=O)C(Cc1ccccc1)CN1CC[C@@](C)(c2cccc(OC)c2)[C@@H](C)C1 (single isomer, unassigned) [Example 83]", "relation qualifier": "=", "reported result": 2}
{"molecule": "C[C@H]1CN(CC(Cc2ccccc2)C(=O)NCC(=O)OCC(=O)NCc2ccccc2)CC[C@@]1(C)c1cccc(O)c1 (relative stereo) [Example 93]", "relation qualifier": "=", "reported result": 3625}
{"molecule": "CNC(=O)CNC(=O)C(CCN1CC[C@@](C)(c2cccc(O)c2)[C@@H](C)C1)c1ccccc1 (relative stereo) [Example 13, monohydrochloride]", "relation qualifier": ">", "reported result": 125}
{"molecule": "C[C@H]1CN(CCC(C(=O)NCC(N)=O)c2ccccc2)CC[C@@]1(C)c1cccc(O)c1 (relative stereo) [Example 14, monohydrochloride monohydrate]", "relation qualifier": ">", "reported result": 43}
{"molecule": "CCOC(=O)CCNC(=O)C(CC1CCCCC1)CN1CC[C@@](C)(c2cccc(O)c2)[C@@H](C)C1 (stereo partly drawn) [Example 36, monohydrochloride]", "relation qualifier": "=", "reported result": 12}
{"molecule": "CCNC(=O)COC(=O)CNC(=O)C(Cc1ccccc1)CN1CC[C@@](C)(c2cccc(O)c2)[C@@H](C)C1 (relative stereo) [Example 89]", "relation qualifier": "<", "reported result": 1}
{"molecule": "CCOC(=O)C(Cc1ccccc1)CN1CC[C@@](C)(c2cccc(OC)c2)[C@@H](C)C1 (single isomer, unassigned) [Example 78B]", "relation qualifier": "=", "reported result": 29}
{"molecule": "CCOC(=O)CNC(=O)C(Cc1ccccc1)CN1CC[C@@](C)(c2cccc(OC)c2)[C@@H](C)C1 (single isomer, unassigned) [Example 81]", "relation qualifier": "=", "reported result": 4}
{"molecule": "C[C@H]1CN(CC(Cc2ccccc2)C(=O)NCC(=O)OCc2ccccc2)CC[C@@]1(C)c1cccc(O)c1 (stereo partly drawn) [Example 55, hydrochloride]", "relation qualifier": "=", "reported result": 63}
{"molecule": "C[C@H]1CN(CCC(C(=O)NCC(=O)O)c2ccccc2)CC[C@@]1(C)c1cccc(O)c1 (relative stereo) [Example 12, monohydrate]", "relation qualifier": "=", "reported result": 2667}
